The following binders are listed with their measured log10(Kd) values.
Molecular target: T1, PUF4 RNA-binding domain (Saccharomyces cerevisiae, UniProt P25339 537-888)
T1 sequence: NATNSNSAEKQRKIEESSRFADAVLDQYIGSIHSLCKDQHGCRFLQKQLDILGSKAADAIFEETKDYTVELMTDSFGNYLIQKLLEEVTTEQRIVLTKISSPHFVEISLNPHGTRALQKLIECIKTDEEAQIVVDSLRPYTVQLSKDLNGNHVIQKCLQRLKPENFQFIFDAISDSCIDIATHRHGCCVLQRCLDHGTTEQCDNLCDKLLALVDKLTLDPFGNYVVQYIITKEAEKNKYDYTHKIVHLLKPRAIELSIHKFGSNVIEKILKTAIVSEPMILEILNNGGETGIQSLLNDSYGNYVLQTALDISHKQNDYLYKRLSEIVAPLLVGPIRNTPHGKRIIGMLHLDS
Test: Mg; RNA-MaP; 20 mM Na-HEPES pH 7.4, 30 mM KOAc, 0.75 mM MgCl2, 0.1% Tween-20, 5% glycerol, 0.1 mg/mL BSA, 2 mM DTT; 25 C; 0.0125-409.6 nM protein
Conditions: tags: N-His6-TEV cleaved; C-SNAP kept, Cy3B-labelled; label: tethered on chip by stalled RNA polymerase
assay_metric: log10(Kd) (log10 of the value in nM)

binder	log10(Kd)
UCUCUUUAUGUAUUAUUAAUUCUCUU (ssRNA) [Id_ii_S1_P5E.2_K5.1_C5.2_[C-2T]_[T-1A]_H5.1_A5.1_F5.1_T5.2_[T11A]_[A12T]]	1.03
Ic_S2_P4E.1_K4.1_C4.1_H4.1_A4.1_[T5A]_[A6C]_[T7G]_F4.1_[T8C]_T4.1 (ssRNA) RNA: UUUGAUUAAUAUGAUAUCGUUCUUUCUUGUAACGCAUUCUUUCUCGAUAUCAUAUUAAUCUUU	2.87
UCUCUUAUUAUAUAUAUAUCUCUU (ssRNA) [Id_ii_S1_P3E.3_K3.2_C3.2_[C-2A]_H3.2_A3.1_F3.1_T3.2]	2.63
Id_ii_S2_P4E.3_K4.2_C4.2_[C-2T]_[T-1A]_H4.2_A4.1_F4.1_T4.2_[G10C]_[T11A] (ssRNA) RNA: UUUGAUUAAUAUGAUAUCGUUCUUUCUUAUAUAUAUUACAUUCUUUCUCGAUAUCAUAUUAAUCUUU	1.24
Id_ii_S2_P3E.3_K3.2_C3.2_[C-2G]_H3.2_A3.1_F3.1_T3.2_[T9C]_[A10G] (ssRNA) RNA: UUUGAUUAAUAUGAUAUCGUUCUUUCUGUUAUAUAUACGUUCUUUCUCGAUAUCAUAUUAAUCUUU	2.46
